target: PDGF-AA (UniProt P04085 87-211); assay: SPR; SPR: PBS (137 mM NaCl, 2.7 mM KCl, 8 mM Na2HPO4, 2 mM KH2PO4) pH 7.4, 25 °C, protein on CM5; EMSA: 50 mM Tris-HCl, 100 mM KCl, pH 7.5, room temperature, 1 uM RNA, 15% PAGE in TBE; conditions: protein: commercial; chain copies: 2; parallel G4
The following binders are shown together with reported pKd values.
Lab note — pKd values are minus log10 of concentrations in M.

Observe how each entry below is paired with its result.
Give pKd for the following binder: GGGGAAGGGGAGCUGGGGCGCAGCGGG (structured_RNA) [PDGFA intronic G4_1] 7.52

Give pKd for the following binder: GGGGGCAGGGCGCAGGAGGGAGAGGGGG (structured_RNA) [VEGFA intronic G4_2] 7.70

Give pKd for the following binder: GGGCGCGGGGUUUGGGGUGGG (structured_RNA) [PDGFB intronic G4_1] 7.52

---
Give pKd for the following binder: GGGUUUGGUUGGGCACAGGGCACGGG (structured_RNA) [PDGFB intronic G4_3] 7.40

Values were extracted from paper PMC6332122.
